# TEST DETAILS: Concentration in serum after oral administration to rats
# CONDITIONS USED: rat, 20 mg/kg
MEASURED ENDPOINT: concentration at 1 h (ng/mL)

COMPOUND	MEASURED ENDPOINT	MEASURED RESULT
COC1C=COC2(C)Oc3c(C)c(O)c4c(=O)c(c5oc6cc(N7CCCC(C)(C)C7)ccc6nc-5c4c3C2=O)NC(=O)C(C)=CC=CC(C)C(O)C(C)C(O)C(C)C(OC(C)=O)C1C (stereo not drawn)	concentration at 1 h	1800

I: COC1C=COC2(C)Oc3c(C)c(O)c4c(=O)c(c5oc6cc(N7CCCC7)ccc6nc-5c4c3C2=O)NC(=O)C(C)=CC=CC(C)C(O)C(C)C(O)C(C)C(OC(C)=O)C1C (stereo not drawn)
II: COC1C=COC2(C)Oc3c(C)c(O)c4c(=O)c(c5oc6cc(N7CCC7)ccc6nc-5c4c3C2=O)NC(=O)C(C)=CC=CC(C)C(O)C(C)C(O)C(C)C(OC(C)=O)C1C (stereo not drawn)
[Q] Higher concentration at 1 h: I or II ? Your answer should be the label attached to the chosen record.
[A] II
(II: 4100 ng/mL, I: 2300 ng/mL)
